- Tested on: OVCAR-3 ovarian
- test: NCI-60 one-dose screen, 48 h (100 = growth as untreated, 0 = no growth, -100 = all killed)
- conditionSet: 10 µM
Compounds without any hit were thinned out: in the full panel of roughly 83,000, 20% have a hit.
growth: recorded values
reportedEndpoint: growth (%)

| compound | targetDesc | reportedEndpoint | reading |
| --- | --- | --- | --- |
| CC(=C(c1ccc(OCCN2CCCCCC2)cc1)c1ccc(OCCN2CCCCCC2)cc1)c1ccc(Cl)cc1 | OVCAR-3 ovarian | growth | -92.6 |
| Nc1nc(Nc2ccccc2)nn1Cc1c(Cl)cccc1Cl | OVCAR-3 ovarian | growth | 54.6 |
| CCCCSc1nc(Nc2ccc(/C(C)=N/NC(N)=S)cc2)c(C#N)c(-c2ccc(OC)cc2)n1 | OVCAR-3 ovarian | growth | -27.2 |
| COc1ccc(C(=O)NC(=S)N2CCN(c3ncnc4c3cnn4-c3ccccc3)CC2)cc1 | OVCAR-3 ovarian | growth | 83.1 |
| COc1cc(C2CC(c3ccc(C)cc3)=Nc3c(N)nc(N)nc3N2)ccc1Oc1nc(Nc2ccc(F)cc2)nc(N(C)C)n1 (stereo not drawn) | OVCAR-3 ovarian | growth | 56.2 |
| COc1ccc(-c2cc(-c3cc(C(=O)c4ccc(Br)cc4)n4ccc(C)cc34)nc(N)c2C#N)cc1 | OVCAR-3 ovarian | growth | 108 |
| Clc1cccc(N/N=C/c2c[nH]c3ccccc23)n1 | OVCAR-3 ovarian | growth | -12.6 |
| O=C1N/C(=N\c2nccs2)S/C1=C\c1cccs1 | OVCAR-3 ovarian | growth | 44.2 |
| COC[C@@H](CC(C)C)N=C1NC(=O)/C(=C/c2ccc3ncsc3c2)N1 | OVCAR-3 ovarian | growth | -38.4 |
| O=C(c1ccc([N+](=O)[O-])c([N+](=O)[O-])c1O)n1[nH]c(=O)c2ccccc2c1=O | OVCAR-3 ovarian | growth | 25.8 |
| COc1ccc([C@H]2C(C(=O)c3ccc(Cl)cc3)C3(N[C@@H]2c2ccccc2)C(=O)Nc2ccc(Cl)cc23)cc1 (stereo partly drawn) | OVCAR-3 ovarian | growth | -10.8 |
| COc1cc(/C=C/C(=O)c2ccc(NC(=O)CN3C(=O)NC(C)(c4ccccc4)C3=O)cc2)cc(OC)c1OC (stereo not drawn) | OVCAR-3 ovarian | growth | -6.99 |
| C=C1CCC2C3(C)COC(c4cc(F)cc(F)c4)OC3CCC2(C)C1C/C=C1/C(=O)OCC1O (stereo not drawn) | OVCAR-3 ovarian | growth | -76.9 |
| CCOP(=O)(OCC)O[C@H]1CC[C@]2(C)[C@H]3CC[C@@H]4[C@@H]([C@](C)(O)CCC=C(C)C)CC[C@@]4(C)[C@]3(C)CC[C@H]2C1(C)C | OVCAR-3 ovarian | growth | 11.1 |
| CN1C(=O)N(C)C2SC(N/N=C/c3cccs3)=NC21 (stereo not drawn) | OVCAR-3 ovarian | growth | -54 |
| O=C(CN1CCN(c2ncnc3c2cnn3-c2ccccc2)CC1)Nc1nncs1 | OVCAR-3 ovarian | growth | -55.6 |
| O=C(c1ccc(O)cc1)C1[C@H](c2ccccc2Br)[C@@H](c2ccccc2)NC12C(=O)Nc1ccc(Cl)cc12 (stereo partly drawn) | OVCAR-3 ovarian | growth | -46.2 |
| O=C(CSc1nnc(-c2c[nH]c3ccccc23)n1-c1ccccc1)c1ccc(Br)cc1 | OVCAR-3 ovarian | growth | 42.5 |

###

- Tested on: HCT-116 colon
- test: NCI-60 one-dose screen, 48 h (100 = growth as untreated, 0 = no growth, -100 = all killed)
- conditionSet: 10 µM
- Description: Growth inhibition of the HCT-116 human tumor cell line is measured as a screen for anti-cancer activity. Cells are grown in 96 well plates and exposed to the test compound for 48 hours. Compounds are tested at a single concentration, which is 10^-5 M for most compounds. The reported endpoint is percent growth (GI% or GIPRCNT), where numbers from 0 - 100% represent growth inhibition, and numbers from -100% - 0 represent cell death. For example, a value of 40 represents 60% growth inhibition. […]
Compounds without any hit were thinned out: in the full panel of roughly 83,000, 20% have a hit.
Please use label 1 whenever growth is not below 60%, and label 0 whenever it is.

| molecule | label |
| --- | --- |
| O=C(NO)c1ccc(Cn2ccc3c(Nc4ccccc4)ncnc32)cc1 | label 0 |
| O=C(Nc1ccc(Cl)c(C(F)(F)F)c1)c1cncc(C#Cc2cnc3ccc(N4CCOCC4)nn23)c1 | label 0 |
| O=C(Cc1ccc2c(c1)CN(C1CCC(=O)NC1=O)C2=O)NCCc1ccccc1 (stereo not drawn) | label 1 |
| COc1ccc2ncc(C#Cc3cncc(C(=O)Nc4ccc(CN5CCN(C)CC5)c(C(F)(F)F)c4)c3)n2n1 | label 0 |
| C/C(=C\c1ccc(O)cc1O)c1ccc2ccc(O)cc2[o+]1 | label 0 |
| COc1cc2c(cc1OC)CN(CCCCOc1cc(O)c3c(=O)cc(-c4ccccc4)oc3c1)CC2 | label 0 |
| COC1=C[C@@]23CCC(=O)N2CCc2cc4c(cc2[C@H]3[C@H]1OC(=O)C(C)(C)O)OCO4 | label 1 |
| O=C(NO)c1ccc(CNc2nc(-c3ccccc3)c3ccccc3n2)cc1 | label 0 |
| CN1CCCN(Cc2ccc(C(=O)Nc3cccc(Nc4ccc5cc(O)ccc5n4)c3)cc2C(F)(F)F)CC1 | label 0 |
| Cc1ccc(-c2nc(Nc3ccc(S(N)(=O)=O)cc3)c3ccccc3n2)cc1 | label 0 |
| CCN1CCN(Cc2ccc(C(=O)Nc3cccc(-c4cn(-c5ccc6oc(=O)ccc6c5)nn4)c3)cc2C(F)(F)F)CC1 | label 0 |
| O=C(Cn1cc(CSc2nnc3oc4ccccc4n23)nn1)Nc1ccc(Br)cc1 | label 1 |
| O=c1cc(-c2ccccc2)oc2cc(OCCCNCc3ccccc3)cc(O)c12 | label 0 |
| CCOC(=O)c1c(CSc2ccccc2)n(C)c2cc(CN(C)C)c(O)c(CN(C)C)c12 | label 0 |
| O=c1[nH]c2ccc(Cl)cc2cc1CSc1ccc(Nc2nccc(-c3ccc4ccccc4c3)n2)cc1 | label 0 |
| O=c1[nH]c2ccccc2cc1CSc1ccc(Nc2nccc(-c3ccc(C(F)(F)F)cc3)n2)cc1 | label 0 |
| CC1(C)CC[C@]2(C(=O)NCCCNCCCCNCCCN)CC[C@]3(C)C(=CC[C@@H]4[C@@]5(C)Cc6c([nH]c7ccccc67)C(C)(C)[C@@H]5CC[C@]43C)[C@H]2C1 | label 1 |
| O=C1Nc2cc(Cl)ccc2/C1=C/c1cccc(OCc2ccccc2)c1 | label 0 |
| Cc1ccn2c(C(=O)c3ccccc3)cc(-c3cc(-c4ccc(N(C)C)cc4)c(C#N)c(N)n3)c2c1 | label 1 |
| COc1ccc2[nH]c(O)c(N=NC(=O)c3cc(-c4ccc(C)cc4)nc4ccccc34)c2c1 | label 1 |
| Cc1cccc2cc(-c3cc(-c4ccccc4)nc(=O)[nH]3)c(Cl)nc12 | label 1 |
| COc1ccc2[nH]c(=O)c(CSc3nccc(-c4ccc(Cl)cc4)n3)cc2c1 | label 0 |
| NC1=NC(c2ccccc2Cl)N=C(Nc2nn[nH]n2)N1 (stereo not drawn) | label 1 |
| O=C(CSc1nnc(-c2ccc3nc(-c4ccccc4)[nH]c3c2)o1)Nc1ccc(Br)cc1 | label 0 |
| CC(=O)Nc1ccc(-n2cnc3cc(-c4ccc(O)cc4)ccc32)cc1C | label 1 |
| O=C1Nc2ccc(F)cc2/C1=C/c1cccc(OCc2ccccc2)c1 | label 0 |
| O=C(CNc1nc(-c2ccccc2)cs1)Nc1ccc(Br)cc1 | label 0 |
| CNC(=O)c1cc(-c2ccc(NC(=O)Nc3ccc(C)cc3)cc2)nc2cccnc12 | label 1 |
| CN(C(=O)c1ccc(C(F)(F)F)cc1C(F)(F)F)c1sc2c(c1C#N)CCC(=O)C2 | label 0 |
| Cc1ccc(C(=O)NNC(=O)CSc2nc3ccccc3c(=O)[nH]2)cc1 | label 1 |
| Nc1nc(Nc2ccc(Cl)cc2)nn1Cc1cccc(Br)c1 | label 0 |
| N#Cc1c(NC(=O)c2ccc(C(F)(F)F)cc2)sc2c1CCC(O)=C2 | label 0 |
| COc1ccc2[nH]c(=O)c(CSc3ccc(Nc4nccc(-c5ccc(Cl)cc5)n4)cc3)cc2c1 | label 1 |
| N#Cc1c(NC(=O)c2cccc(C(F)(F)F)c2)sc2c1CCC(O)=C2 | label 0 |
| C/C(=N\NC(N)=S)c1ccc(Nc2nc(SC(C)C)nc(-c3ccccc3)c2C#N)cc1 | label 0 |
| O=C(Cc1ccc2c(c1)CN(C1CCC(=O)NC1=O)C2=O)NCc1cccc2ccccc12 (stereo not drawn) | label 0 |
| COc1ccc(CCN2C(=O)/C(=C/c3csc(C#N)n3)SC2=S)cc1OC | label 0 |
| CN1CCN(c2ccc(Nc3nc(NCCCNC(=O)C4CCCCC4)c4sccc4n3)cc2)CC1 | label 0 |
